Just for reference, patent US20210403579A1 is where these values come from.

Target: T1, Human ST2 (human, UniProt Q01638 19-328, limits assumed)
T1 construct: also called human ST2 protein; Interleukin 1 receptor-like 1
T1 sequence (looked up): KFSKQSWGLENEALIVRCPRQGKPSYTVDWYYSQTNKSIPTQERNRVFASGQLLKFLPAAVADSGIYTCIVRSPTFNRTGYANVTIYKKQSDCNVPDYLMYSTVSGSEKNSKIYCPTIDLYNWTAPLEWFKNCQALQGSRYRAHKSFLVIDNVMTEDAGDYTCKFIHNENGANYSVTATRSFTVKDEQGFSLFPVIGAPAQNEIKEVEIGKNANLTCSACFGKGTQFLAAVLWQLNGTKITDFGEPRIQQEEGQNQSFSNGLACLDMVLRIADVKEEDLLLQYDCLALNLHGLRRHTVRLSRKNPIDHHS
Experiment: SPR (Carterra), antibody immobilized, ST2 analyte
Collected kon values appear next to each entry.

binder	kon, M⁻¹ s⁻¹
Human ST2 IgG1 Antibody 87 (antibody, V domains shown, IgG1; also called ST2 Antibody 87) VH: QVQLVQSGAEVKKPGASVKVSCKASGYTFAGQYMHWVRQAPGQGLEWMGNINPSGGSTSYAQRFQGRVTMTRDTSTSTVYMELSSLRSEDTAVYYCARGDYSETYYYYMDVWGKGTTVTVSS VL: DIQMTQSPSSLSASVGDRVTITCRASQHINSNLNWYQQKPGKAPKLLIYGASSLQSGVPSRFSGSGSGTDFTLTISSLQPEDFATYYCQQSYTTPFTFGPGTKVDIKR	27000
Human ST2 IgG1 Antibody 72 (antibody, V domains shown, IgG1; also called ST2 Antibody 72) VH: EVQLLESGGGLVQPGGSLRLSCAASGFTFSSYGMSWVRQAPGKGLEWLAVIWSDGGHKYYADSVKGRFTISRDNSKNTLYLQMNSLRAEDTAVYYCAREVRGWFDPWGQGTLVTVSS VL: DIQMTQSPSSLSASVGDRVTITCRASENIGTWLAWYQQKPGKAPKLLIYKASSLDSGVPSRFSGSGSGTDFTLTISSLQPEDFATYYCQQSYSTPYTFGQGTKLEIKR	240000
Human ST2 IgG1 Antibody 52 (antibody, V domains shown, IgG1; also called ST2 Antibody 52) VH: QVQLVQSGAEVKKPGSSVKVSCKASGGTFSNYAISWVRQAPGQGLEWMGWISAYNGNTNYAQKFQGRVTITADESTSTAYMELSSLRSEDTAVYYCARLSTVTTRPYYYYGMDVWGQGTTVTVSS VL: DIVMTQSPLSLPVTPGEPASISCRSSQSLLHSNGYNYLDWYLQKPGQSPQLLIYAASSLQGGVPDRFSGSGSGTDFTLKISRVEAEDVGVYYCMQGTHWPTFGQGTKVEIKR	160000
Human ST2 IgG1 Antibody 100 (antibody, V domains shown, IgG1; also called ST2 Antibody 100) VH: EVQLLESGGGLVQPGGSLRLSCAASGFTFSNYAMAWVRQAPGKGLEWVSWISGSGSYIYYADSVKGRFTISRDNSKNTLYLQMNSLRAEDTAVYYCARRGSSWSNFDYWGQGTLVTVSS VL: DIQMTQSPSSLSASVGDRVTITCRASQTISTYLNWYQQKPGKAPKLLIYDASNLETGVPSRFSGSGSGTDFTLTISSLQPEDFATYYCQQSYSTPITFGQGTKVEIKR	220000
Human ST2 IgG1 Antibody 96 (antibody, V domains shown, IgG1; also called ST2 Antibody 96) VH: QVQLVQSGAEVKKPGSSVKVSCKASGFSFSTYGVAWVRQAPGQGLEWMGGFVPIIGSANYAQKFQGRVTITADESTSTAYMELSSLRSEDTAVYYCARDYGGNLDYWGQGTLVTVSS VL: DIVMTQSPLSLPVTPGEPASISCRSSQSLLHSNGYNYLDWYLQKPGQSPQLLIYAASSLQSGVPDRFSGSGSGTDFTLKISRVEAEDVGVYYCMQGAHWPPTFGQGTKVEIKR	290000
Human ST2 IgG1 Antibody 43 (antibody, V domains shown, IgG1; also called ST2 Antibody 43) VH: QVQLVQSGAQVKKPGASVKVSCKASGYTFSSYYIHWVRQAPGQGLEWMGWINPHSGGTNYGQEFQGRVTMTRDTSTSTVYMELSSLRSEDTAVYYCARDSSGMGATIGYWGQGTLVTVSS VL: DIQMTQSPSSLSASVGDRVTITCRASQSVNRRLAWYQQKPGKAPKLLIYAASTLQSGVPSRFSGSGSGTDFTLTISSLQPEDFATYYCQQGNSFPITFGQGTKVEIKR	51000
Human ST2 IgG1 Antibody 76 (antibody, V domains shown, IgG1; also called ST2 Antibody 76) VH: QVQLVQSGAEVKKPGSSVKVSCKASGYTFTDYYMHWVRQAPGQGLEWMGVIIPVLGAAKYAQKFQGRVTITADESTSTAYMELSSLRSEDTAVYYCAKGWGAFDIWGQGTMVTVSS VL: EIVMTQSPATLSVSPGERATLSCRASQSVSSYLAWYQQKPGQAPRLLIYGASTRASGIPARFSGSGSGTEFTLTISSLQSEDFAVYYCQQYYSYPWTFGQGTKVEIKR	820000
Human ST2 IgG1 Antibody 7 (antibody, V domains shown, IgG1; also called ST2 Antibody 7) VH: QVQLVQSGAEVKKPGASVKVSCKASGYTFTDSYIHWVRQAPGQGLEWMGWMNPNSGNTGYAQKFQGRVTMTRDTSTSTVYMELSSLRSEDTAVYYCARGVFDYGDYGYYYHYMDVWGKGTTVTVSS VL: DIVMTQSPLSLPVTPGEPASISCRSSQSLLHSNGYNYLDWYLQKPGQSPQLLIYGASTLQPGVPDRFSGSGSGTDFTLKISRVEAEDVGVYYCMQGTQWPTFGQGTKLEIKR	290000
Human ST2 IgG1 Antibody 48 (antibody, V domains shown, IgG1; also called ST2 Antibody 48) VH: EVQLLQSGGGLVQPGGSLRLSCAASEFTFSNAWMSWVRQAPGKGLEWVSTISGTSRYTYYADSVKGRFTISRDNSKNSLYLQMNSLRAEDTAVYYCARDQDGRLDYWGQGTLVTVSS VL: DIQMTQSPSSLSASVGDRVTITCRASQNIGSWLAWYQQKPGKAPKLLIYRASTLQSGVPSRFSGSGSGTDFTLTISSLQPEDFATYYCQQSYSTPYTFGQGTKVEIKR	170000
Human ST2 IgG1 Antibody 82 (antibody, V domains shown, IgG1; also called ST2 Antibody 82) VH: QVQLVQSGAEVKKPGASVKVSCKASGYTFTENEMHWVRQAPGQGLEWMGWISAYNGDTNYAQKFQGRVTMTRDTSTSTVYMELSSLRSEDTAVYYCAKEVRLDDDEMWYFDLWGRGTLVTVSS VL: DIQMTQSPSSLSASVGDRVTITCRASQDINNFLVWYQQKPGKAPKLLIYDASNLETGVPSRFSGSGSGTDFTLTISSLQPEDFATYYCQQAYSFPLTFGGGTKVEIKR	15000
